- System: HT29 colon
- Procedure summary: NCI tumour cell line growth inhibition, 48 h
Answer each item with its documented TGI.

Sample O=C(NC1C(=O)NNC1c1ccccc1Cl)c1ccccc1 (stereo not given) — what was its TGI? > 100 µM

// next record CC(=O)OCC1OC(Oc2cc(C)c(O)cc2C/C=C(\C)CC/C=C(\C)C[C@@H](C=C(C)C)OC(C)=O)C(O)C(OC(C)=O)C1OC(C)=O (stereo not given in full) > 50 µM

// next record CCN1C(=O)N(CC)C2C1NN=c1s/c(=C\c3ccc(OC)cc3)c(=O)n12 (stereo not given) > 82.4 µM

// next record CCn1c(O)c(C=Nc2ccccc2)s/c1=N/Nc1nc(-c2ccc(O)c(O)c2)cs1 > 100 µM

// next record N#CCC1(c2ccc(Cl)cc2)NC(=O)c2ccccc21 (stereo not given) > 100 µM

// next record O=C1CSC(c2ccccc2O)N1c1nc2cc3sc(N4C(=O)CSC4c4ccccc4O)nc3cc2s1 (stereo not given) > 100 µM

// next record Nc1ccc(C(=O)Nc2ccccc2N)cc1 > 100 µM

// next record CCCCCC(=Nc1n[nH]nc1C(N)=O)OCC > 100 µM

// next record COc1cc([N+](=O)[O-])ccc1NC(=O)c1cccc([N+](=O)[O-])c1O > 100 µM

// next record CC12CC(=O)C3C(CCC4=CC(=O)CCC43C)C1CC=C2CC(=O)O (stereo not given) > 100 µM
